# experimental-system: T1, Recombinant human TRIM21 PRYSPRY domain (His-tagged, expressed in E. coli BL21 (DE3)) (human, UniProt P19474 287-475, biotinylated when used as bait for biopanning and in the ELISAs (sites not given))
# T1 construct: Purified on Ni-NTA and by gel filtration; Analyte in SPR; biotinylated form used in biopanning and ELISA; also called PRYSPRY domain of TRIM21; bait protein; not shown: N-terminal His-tag of the pQE-2 vector
# T1 sequence (P19474 287-475): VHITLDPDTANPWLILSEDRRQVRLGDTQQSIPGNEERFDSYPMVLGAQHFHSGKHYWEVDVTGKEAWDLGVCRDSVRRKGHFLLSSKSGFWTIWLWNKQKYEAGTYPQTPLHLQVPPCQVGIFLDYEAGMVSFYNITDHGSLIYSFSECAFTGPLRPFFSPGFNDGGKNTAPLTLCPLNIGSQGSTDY
# method-notes: SPR as in Example 1.10, TRIM21 PRYSPRY domain;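 note: antibodies amine-coupled to a GLC chip on a ProteON XPR36, TRIM21 flowed at five concentrations in PBS with 0.05% Tween-20, kinetics fitted to a Langmuir 1:1 model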
readout-type: pKd
API: returns pKd as number; meaning -log10 of concentration in mol/L.

Fc region SN 10 of FIG. 13 (IgG1 256P/433V/434H/440R) (other) PCPAPELLGGPSVFLFPPKPKDTLMISRPPEVTCVVVDVSHEDPEVKFNWYVDGVEVHNAKTKPREEQYNSTYRVVSVLTVLHQDWLNGKEYKCKVSNKALPAPIEKTISKAKGQPREPQVYTLPPSRDELTKNQVSLTCLVKGFYPSDIAVEWESNGQPENNYKTTPPVLDSDGSFFLYSKLTVDKSRWQQGNVFSCSVMHEALVHHYTQKRLSLSPGK | 9.05
Fc region SN 92 of FIG. 13 (IgG1 256A/436F/440M) (other) PCPAPELLGGPSVFLFPPKPKDTLMISRAPEVTCVVVDVSHEDPEVKFNWYVDGVEVHNAKTKPREEQYNSTYRVVSVLTVLHQDWLNGKEYKCKVSNKALPAPIEKTISKAKGQPREPQVYTLPPSRDELTKNQVSLTCLVKGFYPSDIAVEWESNGQPENNYKTTPPVLDSDGSFFLYSKLTVDKSRWQQGNVFSCSVMHEALHNHFTQKMLSLSPGK | 8.43
Fc region SN 1 of FIG. 13 (IgG1 256P/433S/434H/440G) (other) PCPAPELLGGPSVFLFPPKPKDTLMISRPPEVTCVVVDVSHEDPEVKFNWYVDGVEVHNAKTKPREEQYNSTYRVVSVLTVLHQDWLNGKEYKCKVSNKALPAPIEKTISKAKGQPREPQVYTLPPSRDELTKNQVSLTCLVKGFYPSDIAVEWESNGQPENNYKTTPPVLDSDGSFFLYSKLTVDKSRWQQGNVFSCSVMHEALSHHYTQKGLSLSPGK | 10.26
Fc region SN 32 of FIG. 13 (IgG1 256P/433T/434R) (other) PCPAPELLGGPSVFLFPPKPKDTLMISRPPEVTCVVVDVSHEDPEVKFNWYVDGVEVHNAKTKPREEQYNSTYRVVSVLTVLHQDWLNGKEYKCKVSNKALPAPIEKTISKAKGQPREPQVYTLPPSRDELTKNQVSLTCLVKGFYPSDIAVEWESNGQPENNYKTTPPVLDSDGSFFLYSKLTVDKSRWQQGNVFSCSVMHEALTRHYTQKSLSLSPGK | 9.30
Fc region SN 9 of FIG. 13 (IgG1 256P/433V/434H) (other) PCPAPELLGGPSVFLFPPKPKDTLMISRPPEVTCVVVDVSHEDPEVKFNWYVDGVEVHNAKTKPREEQYNSTYRVVSVLTVLHQDWLNGKEYKCKVSNKALPAPIEKTISKAKGQPREPQVYTLPPSRDELTKNQVSLTCLVKGFYPSDIAVEWESNGQPENNYKTTPPVLDSDGSFFLYSKLTVDKSRWQQGNVFSCSVMHEALVHHYTQKSLSLSPGK | 10.02
Fc region SN 2 of FIG. 13 (IgG1 256P/433S/434H) (other) PCPAPELLGGPSVFLFPPKPKDTLMISRPPEVTCVVVDVSHEDPEVKFNWYVDGVEVHNAKTKPREEQYNSTYRVVSVLTVLHQDWLNGKEYKCKVSNKALPAPIEKTISKAKGQPREPQVYTLPPSRDELTKNQVSLTCLVKGFYPSDIAVEWESNGQPENNYKTTPPVLDSDGSFFLYSKLTVDKSRWQQGNVFSCSVMHEALSHHYTQKSLSLSPGK | 9.81

Query :: For the binder Fc region SN 46 of FIG. 13 (IgG1 256P/433V/434R) (other) PCPAPELLGGPSVFLFPPKPKDTLMISRPPEVTCVVVDVSHEDPEVKFNWYVDGVEVHNAKTKPREEQYNSTYRVVSVLTVLHQDWLNGKEYKCKVSNKALPAPIEKTISKAKGQPREPQVYTLPPSRDELTKNQVSLTCLVKGFYPSDIAVEWESNGQPENNYKTTPPVLDSDGSFFLYSKLTVDKSRWQQGNVFSCSVMHEALVRHYTQKSLSLSPGK , give its measured pKd value.
Result :: 9.77
